Target: T1, monkey CD22 protein (ACROBiosystems, catalog number SI2-R52Ha) (monkey, UniProt F6W485 20-688)
T1 construct: commercial protein; also called monkey CD22-ECD; monkey CD22-ECD-His
T1 sequence: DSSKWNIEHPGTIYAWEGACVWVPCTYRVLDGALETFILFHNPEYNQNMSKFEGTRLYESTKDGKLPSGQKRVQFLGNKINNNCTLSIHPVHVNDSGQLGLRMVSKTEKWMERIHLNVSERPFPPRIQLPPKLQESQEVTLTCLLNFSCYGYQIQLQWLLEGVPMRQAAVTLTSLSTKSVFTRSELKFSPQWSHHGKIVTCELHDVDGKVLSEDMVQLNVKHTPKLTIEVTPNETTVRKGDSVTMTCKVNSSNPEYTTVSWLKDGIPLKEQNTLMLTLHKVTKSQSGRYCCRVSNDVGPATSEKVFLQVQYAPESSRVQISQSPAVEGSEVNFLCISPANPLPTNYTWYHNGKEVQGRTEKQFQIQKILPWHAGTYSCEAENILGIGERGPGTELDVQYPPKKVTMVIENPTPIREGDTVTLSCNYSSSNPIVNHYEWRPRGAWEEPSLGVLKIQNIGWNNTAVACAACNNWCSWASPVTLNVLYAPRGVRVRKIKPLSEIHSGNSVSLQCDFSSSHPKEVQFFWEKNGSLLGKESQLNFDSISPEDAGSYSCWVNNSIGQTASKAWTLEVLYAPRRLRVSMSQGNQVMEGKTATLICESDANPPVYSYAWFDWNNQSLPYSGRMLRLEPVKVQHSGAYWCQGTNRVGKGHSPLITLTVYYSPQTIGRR
Experiment: ELISA, coated monkey CD22 protein, antibody 10 nM
OD450 listing for selected binders.
Number only, in OD450; omit the unit.

Sample answers from the record:
{"binder": "F1.250.16 (antibody, human IgG1, kappa, V domains shown, human-murine chimeric IgG1 kappa; VL name legible) VH: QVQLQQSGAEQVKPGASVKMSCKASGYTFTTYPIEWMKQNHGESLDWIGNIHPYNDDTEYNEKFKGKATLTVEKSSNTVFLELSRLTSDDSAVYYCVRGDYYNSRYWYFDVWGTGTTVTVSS VL: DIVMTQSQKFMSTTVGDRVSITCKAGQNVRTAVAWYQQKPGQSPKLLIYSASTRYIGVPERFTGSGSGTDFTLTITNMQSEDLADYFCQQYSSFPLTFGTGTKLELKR", "reported.property": "OD450", "result.units": "OD450", "value.reported": 2.97}
{"binder": "F1.224.1 (antibody, human IgG1, kappa, V domains shown, human-murine chimeric IgG1 kappa; VL name legible) VH: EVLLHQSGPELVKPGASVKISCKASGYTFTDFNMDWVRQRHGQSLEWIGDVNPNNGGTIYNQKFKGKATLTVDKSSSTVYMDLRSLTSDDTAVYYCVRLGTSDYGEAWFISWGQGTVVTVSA VL: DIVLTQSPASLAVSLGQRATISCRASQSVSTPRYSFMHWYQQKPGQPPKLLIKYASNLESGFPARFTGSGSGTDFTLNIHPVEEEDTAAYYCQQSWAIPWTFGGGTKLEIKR", "reported.property": "OD450", "result.units": "OD450", "value.reported": 2.48}
{"binder": "F1.257.3 (antibody, human IgG1, kappa, V domains shown, human-murine chimeric IgG1 kappa; VL name legible) VH: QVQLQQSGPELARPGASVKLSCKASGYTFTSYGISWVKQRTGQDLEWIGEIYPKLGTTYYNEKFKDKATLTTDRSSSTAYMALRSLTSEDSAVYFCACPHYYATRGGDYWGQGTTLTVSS VL: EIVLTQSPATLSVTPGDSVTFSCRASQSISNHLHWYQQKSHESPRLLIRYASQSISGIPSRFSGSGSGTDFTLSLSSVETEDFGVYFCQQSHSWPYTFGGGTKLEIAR", "reported.property": "OD450", "result.units": "OD450", "value.reported": 0.07}
{"binder": "F2.121.9 (antibody, human IgG1, lambda, V domains shown, human-murine chimeric IgG1 lambda) VH: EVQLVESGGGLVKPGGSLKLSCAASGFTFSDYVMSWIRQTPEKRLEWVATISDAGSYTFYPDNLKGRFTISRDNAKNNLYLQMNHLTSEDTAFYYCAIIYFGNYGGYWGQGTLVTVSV VL: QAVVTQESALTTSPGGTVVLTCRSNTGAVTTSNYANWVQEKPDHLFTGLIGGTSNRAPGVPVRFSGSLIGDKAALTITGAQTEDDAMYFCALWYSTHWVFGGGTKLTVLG", "reported.property": "OD450", "result.units": "OD450", "value.reported": 0.56}

Switching to the query record.
Look up OD450 for this binder: F2.151.13 (antibody, human IgG1, lambda, V domains shown, human-murine chimeric IgG1 lambda) VH: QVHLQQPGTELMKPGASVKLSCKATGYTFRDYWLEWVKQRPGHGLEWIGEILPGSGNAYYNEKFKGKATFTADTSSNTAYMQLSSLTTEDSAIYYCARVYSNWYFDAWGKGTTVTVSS VL: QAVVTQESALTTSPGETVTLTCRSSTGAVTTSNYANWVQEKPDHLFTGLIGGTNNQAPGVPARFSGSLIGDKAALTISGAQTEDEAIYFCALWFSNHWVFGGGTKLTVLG 1.89
